From: PubChem BioAssay

assay: inhibitors of TNFa-induced NFkB p65 translocation, primary screen, imaging, HUVEC, MLSMR starter and 10KST1 sets (AID 438); details: HUVEC TNFa-induced p65 nuclear translocation; at 2 µM, stronger effect = higher value, 0% TNFa-plus-vehicle, 100% no-TNFa wells;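 also: compound added about 3h40 before a 20 min TNFalpha stimulation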;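 as to inhibition: signal is the nuclear over cytoplasmic p65 intensity ratio per well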

| test_smiles | inhibition, % |
| --- | --- |
| COc1cccc(CNC(=O)Cn2c(=O)oc3ccccc32)c1OC | -4 |
| COc1cc(C)c(N)cc1C(C)C | -5.6 |
| O=C(CCCOc1ccccc1)N1CCN(c2ccccn2)CC1 | -4.8 |

###

experiment: inhibitors of TNFa-induced NFkB p65 translocation, primary screen, imaging, HUVEC, MLSMR starter and 10KST1 sets (AID 438); conditions: HUVEC TNFa-induced p65 nuclear translocation; measured here: nuclei count (cytotoxicity indicator), at 2.08 µM;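 also: compound added about 3h40 before a 20 min TNFalpha stimulation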
Criterion: cell count meeting or surpassing 600. Met: fulfilled. Not met: not fulfilled.

| compound | class_assignment |
| --- | --- |
| c1coc(CN(Cc2cccs2)Cc2nnnn2C2CCCCC2)c1 | not fulfilled |
| CC1(C)Cc2c(C#N)c(N3CCN(C(=O)c4ccco4)CC3)nc(-c3ccco3)c2CS1 | fulfilled |
| CN(CCc1ccccn1)C(=O)CCNC(=O)Cn1cnc2ccccc2c1=O | not fulfilled |
| Cc1nn(CCO)c2c1C(=O)CCC2 | not fulfilled |
| CCn1c(C(C#N)/C(=N\S(=O)(=O)c2cccs2)c2ccccc2)nc2ccccc21 (stereo not drawn) | fulfilled |
| Cn1c(OCc2cccnc2)nc2c1c(=O)n(Cc1ccccc1)c(=O)n2C | fulfilled |

###

# Lookup of reported inhibition keyed by entry
target: Dual specificity protein phosphatase 6 (Homo sapiens); experiment: DUSP6 inhibitors restoring Erk phosphorylation by chemical complementation, primary imaging in DUSP6-transfected HeLa (AID 609); conditions: HeLa MKP-3 transfected, phospho-Erk imaging KS statistic; at 10 µM; stronger effect = higher value; cells stimulated with TPA for 15 min;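 also: phospho-Erk level distribution per well compared with pooled transfected vehicle control wells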
measurement_kind: inhibition (%)

| compound | measured_on | readout_unit | test_result |
| --- | --- | --- | --- |
| CCOC(=O)C1CCCN(c2nc3ccccc3nc2C(C#N)C(=O)OC(C)COC)C1 (stereo unspecified) | Dual specificity protein phosphatase 6 (Homo sapiens) | % | -5.81 |
| C/C(NC(=O)c1ccccc1F)=C1\C(=O)C[C@@H]2[C@H]1C2(C)C | Dual specificity protein phosphatase 6 (Homo sapiens) | % | -2.47 |
| Cc1ccc(-c2nnc(-c3ccccc3)o2)cc1Br | Dual specificity protein phosphatase 6 (Homo sapiens) | % | 1.63 |
| O=C(Oc1oc(-c2ccco2)nc1C=Nc1ccccc1)c1ccco1 | Dual specificity protein phosphatase 6 (Homo sapiens) | % | 22.1 |
| Cc1ccc(-n2ncc3c(NCCCOC(C)C)ncnc32)c(C)c1 | Dual specificity protein phosphatase 6 (Homo sapiens) | % | 1.42 |
| Cn1c(=O)c2c(nc(NCCCO)n2Cc2cccc(C(F)(F)F)c2)n(C)c1=O | Dual specificity protein phosphatase 6 (Homo sapiens) | % | -5.95 |
| N#CCCN(C(=O)c1ccco1)c1ccccc1 | Dual specificity protein phosphatase 6 (Homo sapiens) | % | 1.42 |
| COc1ccccc1NC(=O)CSc1nnc(-c2ccc(NC(C)=O)cc2)n1C | Dual specificity protein phosphatase 6 (Homo sapiens) | % | 12.8 |
| O=C(O)C1CC(=O)n2c(nc3ccccc32)S1 (stereo unspecified) | Dual specificity protein phosphatase 6 (Homo sapiens) | % | 3.49 |
| CS(=O)(=O)c1ccc2nc(NC(NC(=O)c3ccco3)(C(F)(F)F)C(F)(F)F)sc2c1 | Dual specificity protein phosphatase 6 (Homo sapiens) | % | 3.42 |
| CSc1nc(N)nc(SCC(=O)C23CC4CC(CC(C4)C2)C3)c1C#N | Dual specificity protein phosphatase 6 (Homo sapiens) | % | 15.9 |
| COc1cccc(-c2nc(N3CCCCC3C)c3ccccc3n2)c1O (stereo unspecified) | Dual specificity protein phosphatase 6 (Homo sapiens) | % | -5.62 |
| CCOc1cccc(NC(=O)C2CC(=O)NC(=Nc3ccccc3)S2)c1 (stereo unspecified) | Dual specificity protein phosphatase 6 (Homo sapiens) | % | -11.4 |
| Nc1nc2n(n1)C(c1cccs1)CC(c1ccc(Br)cc1)N2 (stereo unspecified) | Dual specificity protein phosphatase 6 (Homo sapiens) | % | 5.65 |
| COc1ccc(C2/C(=C(\O)c3ccc4c(c3)OCCO4)C(=O)C(=O)N2CCCN(C)C)cc1 (stereo unspecified) | Dual specificity protein phosphatase 6 (Homo sapiens) | % | 3.56 |
| O=C(c1cc(N2CCCCC2)nc2ccccc12)N1CCOCC1 | Dual specificity protein phosphatase 6 (Homo sapiens) | % | -15 |
| COc1ccc(N2CC(=O)N(c3ccc(OC)c(OC)c3)CC2=O)cc1OC | Dual specificity protein phosphatase 6 (Homo sapiens) | % | 3.42 |
| CCOC(=O)NC(Nc1sc2c(c1C(=O)OC)CCN(C)C2)(C(F)(F)F)C(F)(F)F | Dual specificity protein phosphatase 6 (Homo sapiens) | % | 16.5 |
| O=C(C1CCCCC1)N1CCCn2c1nc1ccccc12 | Dual specificity protein phosphatase 6 (Homo sapiens) | % | -0.233 |
| COC(=O)CSc1nc(C)c(Oc2ccccc2)c(=O)[nH]1 | Dual specificity protein phosphatase 6 (Homo sapiens) | % | -2.09 |
| CCc1cc(=O)oc2cc(C)c(CN3CCCCC3)c(O)c12 | Dual specificity protein phosphatase 6 (Homo sapiens) | % | -8.95 |
| Cc1cc(=O)oc2c(CN3CCC(C)CC3)c(O)c(Cl)cc12 | Dual specificity protein phosphatase 6 (Homo sapiens) | % | 1.12 |
| O=c1cc(O)nc2n1CCCS2 | Dual specificity protein phosphatase 6 (Homo sapiens) | % | -9.53 |
| COC(=O)CSc1nnc(C)c(=O)[nH]1 | Dual specificity protein phosphatase 6 (Homo sapiens) | % | -7.86 |
| C=CCOc1ccc(/C(O)=C2\C(=O)C(=O)N(CCN(C)C)C2c2cccs2)cc1 (stereo unspecified) | Dual specificity protein phosphatase 6 (Homo sapiens) | % | 12.8 |
| CN1CCN(Cc2c(O)c(Cl)cc3c(-c4ccccc4)cc(=O)oc23)CC1 | Dual specificity protein phosphatase 6 (Homo sapiens) | % | 2.46 |

###

experiment: inhibitors of mutant huntingtin aggregation, primary screen, imaging, exon1htt(103Q)mCFP cells, high-content imaging (AID 483); conditions: exon1htt(103Q)mCFP cell line, aggregate imaging, at 2 µM; measured here: cell count, toxicity;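 also: compound exposure lasted 3 days before fixation; percent of the per-plate median nuclei count of sample wells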
Where a SMILES comes first, the peptide text is derived from it. The star is where a group is joined. Boc = CC(C)(C)OC(=O)*
// reported nuclei count per item
measurement_kind: nuclei count (%)

| molecule | measurement_kind | readout_unit | test_result |
| --- | --- | --- | --- |
| O=C(CN1CCN(c2ncccn2)CC1)Nc1ccccc1-n1cccc1 | nuclei count | % | 81.3 |
| CCCCOc1cc(=O)[nH]c(=O)[nH]1 | nuclei count | % | 84.2 |
| Cc1cccc(NC(=O)c2cc(NC(=O)c3ccco3)ccc2Cl)n1 | nuclei count | % | 83.5 |
| O=C(COC(=O)c1cncc(Br)c1)NCCC1=CCCCC1 | nuclei count | % | 107 |
| CC(C)(C)OC(=O)N1CCCC1C(=O)NC(Cc1ccccc1)C(=O)O (stereo not drawn) (Boc-Pro-Phe-OH; configuration not given here) | nuclei count | % | 99.5 |
| Cc1cc(C)c(C(=O)CSc2nnc(-c3ccccc3Br)o2)cc1C | nuclei count | % | 97.3 |
| CCc1ccc(CCC(=O)Nc2ccc(C)c(C)c2)o1 | nuclei count | % | 80.2 |
| O=C(c1ccc(Br)o1)N1CCN(c2ccc3nnc(-c4ccccc4)n3n2)CC1 | nuclei count | % | 80.7 |
| N#CC1=C(SCC(=O)NC2CCCCC2)NC(=O)CC1c1ccco1 (stereo not drawn) | nuclei count | % | 62 |
| O=C(CS(=O)(=O)c1cn(Cc2ccc(Cl)cc2)c2ccccc12)N1CCCC1 | nuclei count | % | 116 |
| CCOC(=O)N1CCC(c2cc(=O)n3[nH]cc(C(=O)OC)c3n2)CC1 | nuclei count | % | 58.3 |
| COc1ccc(C2CC(c3ccc(Cl)cc3Cl)Nc3nc(N)nn32)cc1 (stereo not drawn) | nuclei count | % | 105 |
| O=C1c2ccccc2S(=O)(=O)N1CC(O)Cn1c2ccccc2c2ccccc21 (stereo not drawn) | nuclei count | % | 105 |

###

Recorded measurements of inhibition, one per entry
test: inhibitors of Sendai virus-induced IRF3 signaling, primary screen, TLR/RLR signaling modifier project, cell-based, Sendai virus stimulus, luciferase, 10K MLSCN set (AID 602276); details: HEK293 RL24 IRF3 luciferase reporter, at 10 µM, stronger effect = higher value;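 also: firefly luciferase from ISG56 promoter only with Renilla not read in this screen; 0% = Sendai virus plus DMSO and 100% = medium plus DMSO without virus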

| compound | readout_unit | inhibition |
| --- | --- | --- |
| CSCCC(NC(=O)c1ccco1)C(=O)O (stereo not drawn) | % | -9.48 |
| CCOc1ccc(Nc2nc(Cc3nnc(SCC(N)=O)o3)cs2)cc1 | % | 9.26 |
| c1cn(CC2(Cn3ccnc3)COC2)cn1 | % | 14.1 |
| COc1ccc(OC)c(NC(=O)C2C3CC4OC(=O)C2C4C3)c1 (stereo not drawn) | % | 13.4 |
| COc1ccc(-c2nnc(SCC(=O)NC(=O)NCc3ccco3)o2)cc1 | % | 18.6 |
| CCOC(=O)C1=C(c2ccccc2)NC(=O)NC1c1ccc(N(C)C)cc1 (stereo not drawn) | % | 12.6 |
| Cc1ccc(-c2ccc(SCC(=O)Nc3nonc3C)nn2)cc1 | % | 9.6 |
| CCn1c(C(=O)N2CCC(C(=O)N3CCN(c4ccccn4)CC3)CC2)cc2sccc21 | % | -5.71 |
| Cc1cccc(N2C(=O)CC(N3CCN(C(=O)c4ccccc4)CC3)C2=O)c1 (stereo not drawn) | % | 10.6 |
| CC(C)c1ncc(C(O)c2cccc3ccccc23)n1C (stereo not drawn) | % | -12.7 |
| CCOc1ccccc1NC(=O)CN(C)S(=O)(=O)c1cccc2nsnc12 | % | 15.8 |
| CCCCn1c(SCC(=O)Nc2cc(C)on2)nnc1-c1cccnc1 | % | 11.3 |
| Cc1cc(CN2CCN(CCC#N)CC2)c(O)c(C2(C)CCCCC2)c1 | % | -14.9 |
| CCOc1ccc(NC(=O)CN(C)CC(=O)NC2CCCc3ccccc32)cc1OCC (stereo not drawn) | % | 8.91 |
| COc1ccc(C(=O)Nc2cccc(C)c2)cc1S(=O)(=O)N1CCOCC1 | % | 6.15 |
| O=C(CCn1c(=O)sc2ccccc21)Nc1nccs1 | % | -21.2 |
| CCOC(=O)c1oc2ccccc2c1NC(=O)COC | % | -14.3 |
| O=C(CSc1nnc2ccccn12)NCCN1C(=O)CSC1=O | % | 7.75 |
